# key: entry, value: pKd
- Subject Of Test: T1, EsCas13d, nuclease-dead (Eubacterium siraeum, UniProt B0MS50, R295A;H300A;R849A;H854A)
- T1 sequence: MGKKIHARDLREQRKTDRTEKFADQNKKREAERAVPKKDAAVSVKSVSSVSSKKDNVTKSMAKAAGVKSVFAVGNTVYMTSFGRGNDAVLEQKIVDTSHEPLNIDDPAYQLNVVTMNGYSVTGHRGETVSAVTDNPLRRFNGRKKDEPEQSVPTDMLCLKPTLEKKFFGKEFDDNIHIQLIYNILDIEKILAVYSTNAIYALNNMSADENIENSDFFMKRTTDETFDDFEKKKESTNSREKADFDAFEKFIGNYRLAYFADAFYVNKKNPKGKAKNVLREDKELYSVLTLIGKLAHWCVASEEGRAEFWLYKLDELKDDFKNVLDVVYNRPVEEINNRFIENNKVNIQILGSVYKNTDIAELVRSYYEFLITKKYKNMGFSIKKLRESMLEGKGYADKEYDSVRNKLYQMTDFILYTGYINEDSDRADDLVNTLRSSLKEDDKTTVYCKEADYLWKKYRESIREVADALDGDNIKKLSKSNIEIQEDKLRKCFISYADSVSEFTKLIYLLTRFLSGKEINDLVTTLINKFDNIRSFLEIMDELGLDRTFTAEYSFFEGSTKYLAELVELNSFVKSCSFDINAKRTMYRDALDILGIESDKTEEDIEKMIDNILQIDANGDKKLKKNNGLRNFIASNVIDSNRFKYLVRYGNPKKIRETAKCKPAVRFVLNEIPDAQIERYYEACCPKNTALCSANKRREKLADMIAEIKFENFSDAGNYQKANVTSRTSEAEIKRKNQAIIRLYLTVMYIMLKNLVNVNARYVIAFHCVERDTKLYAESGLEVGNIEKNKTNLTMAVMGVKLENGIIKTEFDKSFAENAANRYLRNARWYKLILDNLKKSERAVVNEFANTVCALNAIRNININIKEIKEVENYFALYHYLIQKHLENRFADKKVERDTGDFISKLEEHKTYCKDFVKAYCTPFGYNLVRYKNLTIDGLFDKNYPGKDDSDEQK
- Measurement Notes: crRNA (strand 1, pre-loaded); Mg2+; 40 mM Tris-HCl pH 7.5, 150 mM NaCl, 6 mM MgCl2, 1 mM DTT, 0.1% Tween-20, 0.2 mg/ml BSA; 25 C; 10 min per concentration, then washed
- Details: tags: His6-TwinStrep-SUMO cleaved; N-terminal SNAP kept (SNAP-Surface 488); label: 3' end held by stalled T7 RNA polymerase
By convention, pKd is the negative base-10 log of a molar concentration.

INSERT INTO measurements (binder, measured_endpoint, reported_value) VALUES
  ('target 1 C6U,C22A (mixed) RNA 1: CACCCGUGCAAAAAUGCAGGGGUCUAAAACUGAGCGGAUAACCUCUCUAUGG RNA 2: GGGAAUGGAUCCACAUCUACGAAUUCGUAACAUAGAGAGGUUAUCUGCUCACCGAGAUCGGAAGAGCACACGU', 'pKd', 7.80),
  ('target 3 A11G,A12G (mixed) RNA 1: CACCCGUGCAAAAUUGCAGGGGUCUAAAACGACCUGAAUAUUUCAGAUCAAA RNA 2: GGGAAUGGAUCCACAUCUACGAAUUCGUUUUUGAUCUGAGGUAUUCAGGUCUGCAGAUCGGAAGAGCACACGU', 'pKd', 7.14);

What the record says about target 1 MT 5'PFS AAG 3'PFS ACU (mixed) RNA 1: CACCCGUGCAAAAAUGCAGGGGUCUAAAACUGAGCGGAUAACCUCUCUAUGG RNA 2: GGGAAUGGAUCCACAUCUACGAAUUCAAGCCAUAGAGAGGUUAUCCGCUCAACUAGAUCGGAAGAGCACACGU : pKd is 7.78

What the record says about target 2 MT 5'PFS AAU 3'PFS ACU (mixed) RNA 1: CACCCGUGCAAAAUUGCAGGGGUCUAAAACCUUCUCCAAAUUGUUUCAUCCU RNA 2: GGGAAUGGAUCCACAUCUACGAAUUCAAUAGGAUGAAACAAUUUGGAGAAGACUAGAUCGGAAGAGCACACGU : pKd is 8.21
